Tested on: T-47D breast
Test: NCI-60 one-dose screen, 48 h (100 = growth as untreated, 0 = no growth, -100 = all killed)
Details: 10 µM
The panel holds about 83,000 compounds, 20% with a hit somewhere; the sample as a whole holds those more often.
Measurement label: growth (%)
One number for each entry, in %.

>  <Smiles string>
CC(=O)/C=C/c1ccc(OCc2ccc(Cl)cc2)cc1

>  <Measurement label>
growth

>  <Readout number>
93.1

$$$$
>  <Smiles string>
CCN(Cc1ccccc1)c1ccc(/C=C2\COc3ccccc3C2=O)cc1

>  <Measurement label>
growth

>  <Readout number>
78.3

$$$$
>  <Smiles string>
COc1ccc(C(=O)/C=C/c2ccc(OCc3cccc(C(F)(F)F)c3)c(OC)c2)cc1OC

>  <Measurement label>
growth

>  <Readout number>
54.2

$$$$
>  <Smiles string>
CC(=O)/C=C/c1ccc(OCc2ccc(C(C)(C)C)cc2)cc1

>  <Measurement label>
growth

>  <Readout number>
52.8

$$$$

Can you share its growth? I mean this compound: CC(=O)/C=C/c1ccc(N(CCO)Cc2ccc(C(C)(C)C)cc2)cc1
60.2
